Here's what we have: Ki numbers for Gamma-aminobutyric acid receptor subunit alpha-6 (Rattus norvegicus, UniProt P30191).
measurement-type: Ki

line-notation | measurement-type | result
CCOC(=O)c1ncc2[nH]c3ccc(OCc4ccccc4)cc3c2c1COC | Ki | > 10 µM
COc1ccc2ncc3c(=O)n(-c4ccccc4)[nH]c3c2c1 | Ki | 0.0745 µM
CN1Cc2c(C(=O)OC(C)(C)C)ncn2-c2ccc(OCc3ccccc3)cc2C1=O | Ki | 1.59 µM
CCOC(=O)c1ncc2[nH]c3cccc(OCc4ccccc4)c3c2c1COC | Ki | 1.2 µM
COC(=O)c1cc2c(cn1)[nH]c1ccccc12 | Ki | 2.02 µM

Origin of the recorded values: BindingDB's records for doi:10.1016/s0028-3908(96)00054-8
